Where do the numbers come from? From paper PMC9482650.

Molecular target: T1, LRRC7, Q96NW7
T1 sequence (Q96NW7 1440-1537, limits assumed, looked up): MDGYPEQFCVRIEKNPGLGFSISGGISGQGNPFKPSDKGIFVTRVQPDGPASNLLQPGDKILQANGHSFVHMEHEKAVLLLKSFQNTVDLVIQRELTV
Assay: holdup assay
Parameters: key: below the threshold = too weak to quantify, mostly under pKd 3.1 to 4
Conditions: plain residues with an end cap or a label only (N-terminal biotin on a linker: ado-ado)
Readout label: pKd

Below, 5 binders whose answers are already recorded.
Binder	pKd
SAAKVLTSMC [GHRHR, Q02643]	below the threshold
EVNETDDTKM [KCNJ1, P48048]	below the threshold
YRLAQESGLV [ABCC6, O95255]	below the threshold
LGRSTPQSEV [DGKH, Q86XP1]	below the threshold
SSALYGESDL [ACTN2, P35609]	3.86

**Query** Provide one value: measured pKd of GNSVLKSTQF [SLC22A12, Q96S37]
**Result** below the threshold

**Query** Answer with reported pKd of QGLAERISVL [PRKD2, Q9BZL6]
**Result** below the threshold

**Query** Output pKd of LKVPPEERLI [CRB2, Q5IJ48]
**Result** below the threshold

**Query** In one line, give reported pKd of the entry PRAEAEDSFL [PDGFRB, P09619] .
**Result** 3.92

**Query** Give recorded pKd. TPPAAKKSRI [BAZ1A, Q9NRL2]
**Result** below the threshold

**Query** Look up and state reported pKd for KKAPTNEFYA [SDC4, P31431]
**Result** below the threshold

**Query** Entry HLRARKSEWV [GJD4, Q96KN9] needs its pKd filled in; supply it.
**Result** 3.81

**Query** Respond only with pKd recorded for NLSIEKETKL [ASNSD1, Q9NWL6]
**Result** below the threshold
